Read-out: JUN Transcription Factor, JUN (gene 3725)
PROCEDURE_SUMMARY: LTEA_HepaRG_JUN: Life Technologies and Expression Analysis (LTEA) Assay for JUN Transcription Factor using HepaRG (AID 2283513)
CONDITIONS_USED: mRNA level, 48 h; actives raise or lower the signal
Description: LTEA_HepaRG is a cell based, multiplexed-readout assay that uses HepaRG, a human liver cell line, with measurements taken at 48 hours after chemical dosing on a 96-well plate.LTEA_HepaRG_JUN is one of 102 assay component(s) measured in the LTEA HepaRG cell culture assay. It is a marker of Cell proliferation, survival, death.Data from the assay component LTEA_HepaRG_JUN was analyzed into 1 endpoint. […]
Calls of active or inactive are those of the source. Rule for the calls: active = hit-call score of the fitted dose curve at least 0.9, where 1 is the maximum; inactive = score below 0.9.
Outcomes: true (active), false (inactive)

MOLECULE	CAT
CCCCC(CC)COC(=O)CCCCC(=O)OCc1ccccc1 (stereo unspecified)	false
COC(=O)CCCCC(=O)OC	false
CCCCCCCC(=O)O	false
C[C@@H]1C[C@H]2[C@@H]3CCC4=CC(=O)C=C[C@]4(C)[C@@]3(F)[C@@H](O)C[C@]2(C)[C@@]1(O)C(=O)COP(=O)(O)O	false
ClC1=C(Cl)C(Cl)(Cl)C(Cl)=C1Cl	false
CC[C@H](c1ccc(O)cc1)[C@@H](CC)c1ccc(O)cc1	true
OCCC(F)(F)C(F)(F)C(F)(F)C(F)(F)C(F)(F)C(F)(F)C(F)(F)C(F)(F)F	false
CCCCOCCO	false
CCCCCCCCCCCCCCCS(=O)(=O)Oc1ccccc1	false
CN(C)C=O	false
COCC(C)O (stereo unspecified)	false

----------
SUBJECT_OF_TEST: Estrogen receptor (Homo sapiens) (UniProt P03372)
Sequence (P03372 whole entry, looked up): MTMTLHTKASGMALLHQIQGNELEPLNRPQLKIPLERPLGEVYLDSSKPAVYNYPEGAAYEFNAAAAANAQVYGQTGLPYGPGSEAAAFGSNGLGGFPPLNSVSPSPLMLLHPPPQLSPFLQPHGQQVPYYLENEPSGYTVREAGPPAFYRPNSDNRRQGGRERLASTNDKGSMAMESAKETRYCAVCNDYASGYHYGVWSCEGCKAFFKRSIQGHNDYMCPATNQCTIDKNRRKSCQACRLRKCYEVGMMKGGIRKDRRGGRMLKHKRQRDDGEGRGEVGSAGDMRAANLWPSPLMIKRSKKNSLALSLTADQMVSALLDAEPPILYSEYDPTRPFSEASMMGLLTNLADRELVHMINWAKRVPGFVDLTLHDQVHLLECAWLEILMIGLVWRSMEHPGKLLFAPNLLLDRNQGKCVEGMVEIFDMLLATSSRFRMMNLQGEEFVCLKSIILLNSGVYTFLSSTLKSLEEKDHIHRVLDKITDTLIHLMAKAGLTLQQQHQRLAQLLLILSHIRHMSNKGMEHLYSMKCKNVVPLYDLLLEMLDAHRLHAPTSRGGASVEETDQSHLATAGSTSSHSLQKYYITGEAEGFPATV
PROCEDURE_SUMMARY: OT_ERa_GFPERaERE_0120: Odyssey Thera (OT) 2-hour HeLa Transcription Induction Assay for Estrogen Receptor (AID 2283382)
Calls of active or inactive are those of the source. The calls were made as follows: active = hit-call score of the fitted dose curve at least 0.9, where 1 is the maximum; inconclusive = response in the unintended direction; inactive = score below 0.9.
Outcomes: TRUE = active, FALSE = inactive

COMPOUND	SUBJECT_OF_TEST	CAT
CC(O)C(=O)O (configuration not stated)	Estrogen receptor (Homo sapiens) (UniProt P03372)	FALSE
Cc1oc(-c2ccccc2)nc1CCOc1ccc(C[C@H](Nc2ccccc2C(=O)c2ccccc2)C(=O)O)cc1	Estrogen receptor (Homo sapiens) (UniProt P03372)	FALSE
OC1CCCCC1	Estrogen receptor (Homo sapiens) (UniProt P03372)	FALSE
CC(C)(C)CC(C)(C)c1ccc(O)c(-n2nc3ccccc3n2)c1	Estrogen receptor (Homo sapiens) (UniProt P03372)	FALSE
O=[N+]([O-])c1ccc(O)cc1	Estrogen receptor (Homo sapiens) (UniProt P03372)	FALSE
CCc1nn(C2CCCCC2)c2cc(C3(C#N)CCC(C(=O)O)CC3)ccc12 (configuration not stated)	Estrogen receptor (Homo sapiens) (UniProt P03372)	FALSE
O=C(O)Cc1cc(I)c(Oc2cc(I)c(O)c(I)c2)c(I)c1	Estrogen receptor (Homo sapiens) (UniProt P03372)	TRUE

----------
PROCEDURE_SUMMARY: APR_HepG2_p53Act_24hr: Apredica 24-hour HepG2 Assay for p53 Activation (AID 2282913);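 note: p53 protein immunofluorescence averaged per cell in HepG2 with Hoechst nuclei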
CONDITIONS_USED: high-content imaging, actives raise or lower the signal
The source made the active and inactive calls. Rule for the calls: active = hit-call score of the fitted dose curve at least 0.9, where 1 is the maximum; inactive = score below 0.9.
Outcomes: active, inactive

MOLECULE	CAT
O=c1c(-c2ccc(O)cc2)coc2cc(O)ccc12	inactive
CC(=O)CC(C)(C)O	active
CCCCC[C@H](O)CC(=O)CCc1ccc(O)c(OC)c1	inactive
c1ccc2c(c1)Cc1ccccc1-2	inactive
CCCCCCCCOC(=O)CCCCCCCCC(=O)OCCCCCCCC	inactive
CCC(C)(C)C1CCC(O)CC1 (stereo not given)	active
COCC(C)OCC(C)O (stereo not given)	inactive
COc1cc(CCC(=O)CC(=O)CCc2ccc(O)c(OC)c2)ccc1O	inactive
O=C(OCCOCCOC(=O)c1ccccc1)c1ccccc1	inactive
CCCCCCCCCCCCN1CCCC1=O	inactive

----------
PROCEDURE_SUMMARY: BSK_3C_uPAR: BioMAP Diversity Plus: 3C Assay for Urokinase-type plasminogen activator receptor (uPAR) Biomarker Activity (AID 2282998)
CONDITIONS_USED: BioMAP 3C HUVEC, uPAR biomarker ELISA; actives raise or lower the signal
Activity calls are given as the source filed them. How the source made its calls: active means hit-call score of the fitted dose curve at least 0.9, where 1 is the maximum; inactive means score below 0.9.
Outcomes: active, inactive

MOLECULE	CAT
COCC(C)O (stereo not given)	inactive
COc1ccc([N+](=O)[O-])cc1N	inactive
c1ccc2c(c1)Cc1ccccc1-2	inactive
CC(=O)NC1(c2cccc(F)c2)CCN(CC[C@@]2(c3ccc(Cl)c(Cl)c3)CN(c3ccccc3)C(=O)CO2)CC1	active
CCC(=C(c1ccc(O)cc1)c1ccc(OCCN(C)C)cc1)c1ccccc1	active
NC(=O)N1C(=O)C(C(=O)c2cc(Cl)cs2)c2cc(F)c(Cl)cc21 (stereo not given)	active
CC(C)(C)c1cccc(C(C)(C)C)c1O	inactive
Cc1oc(-c2ccccc2)nc1CCOc1ccc(C[C@H](Nc2ccccc2C(=O)c2ccccc2)C(=O)O)cc1	active
COCC(C)OCC(C)O (stereo not given)	inactive
OC1CCC(C2CCCCC2)CC1 (stereo not given)	inactive

----------
Read-out: Apolipoprotein A-V (APOA5) gene, APOA5 (gene 116519)
PROCEDURE_SUMMARY: LTEA_HepaRG_APOA5: Life Technologies and Expression Analysis (LTEA) Assay for Apolipoprotein A-V (APOA5) gene using HepaRG (AID 2283474)
CONDITIONS_USED: mRNA level, 48 h; actives raise or lower the signal
Description: LTEA_HepaRG is a cell based, multiplexed-readout assay that uses HepaRG, a human liver cell line, with measurements taken at 48 hours after chemical dosing on a 96-well plate.LTEA_HepaRG_APOA5 is one of 102 assay component(s) measured in the LTEA HepaRG cell culture assay. It is a marker of Steatosis.Data from the assay component LTEA_HepaRG_APOA5 was analyzed into 1 endpoint. […]
Activity calls are given as the source filed them. The calls were made as follows: active = hit-call score of the fitted dose curve at least 0.9, where 1 is the maximum; inactive = score below 0.9.
MEASURE_NAME: AC50

CC(C)(C)CC(C)(C)c1ccc(O)c(-n2nc3ccccc3n2)c1 inactive
O=C(O)Cc1cc(I)c(Oc2cc(I)c(O)c(I)c2)c(I)c1 57.7 µM (active)
CCC(=C(c1ccc(O)cc1)c1ccc(OCCN(C)C)cc1)c1ccccc1 inactive
CCCCCCCCCCCCc1ccccc1S(=O)(=O)O 80.3 µM (active)
CC(=O)CC(C)(C)O inactive
CC(C)(C)c1cc(C(C)(C)C)c(O)c(C(C)(C)C)c1 inactive

----------
PROCEDURE_SUMMARY: BSK_3C_TissueFactor: BioMAP Diversity Plus: 3C Assay for Tissue Factor Biomarker Activity (AID 2282997)
CONDITIONS_USED: BioMAP 3C HUVEC, tissue factor biomarker readout; actives raise or lower the signal
Calls of active or inactive are those of the source. The calls were made as follows: active = hit-call score of the fitted dose curve at least 0.9, where 1 is the maximum; inactive = score below 0.9.
Outcomes: yes (1) = active, no (0) = inactive

MOLECULE	CAT
CC(C)CCCCCCOC(=O)CCCCC(=O)OCCCCCCC(C)C	no (0)
CCCCCCCCCCCCc1ccccc1S(=O)(=O)O	no (0)
Cc1oc(-c2ccccc2)nc1CCOc1ccc(C[C@H](Nc2ccccc2C(=O)c2ccccc2)C(=O)O)cc1	yes (1)
c1ccc2cc3c(ccc4ccccc43)cc2c1	no (0)
NCC(F)(F)C(F)(F)C(F)(F)C(F)(F)C(F)(F)C(F)(F)C(F)(F)F	no (0)
OC1CCC(C2CCCCC2)CC1 (stereo not drawn)	no (0)
CCCOc1sc(C(=O)N2CCC(c3cc(CN)ccc3F)CC2)c(C)c1Br	yes (1)
CC(C)(C)c1cc(C(C)(C)C)c(O)c(C(C)(C)C)c1	no (0)
O=C(O)c1ccccc1C(c1ccc(O)cc1)c1ccc(O)cc1	no (0)
CC[C@H](C)[C@@H](C(=O)O)n1sc2ccccc2c1=O	no (0)
CCCOC(=O)c1ccc(O)cc1	no (0)
O=[N+]([O-])c1ccc(O)cc1	no (0)
CC(O)CO (stereo not drawn)	no (0)
COC(=O)CCCCC(=O)OC	no (0)
CCCCCCCCCCCCN1CCCC1=O	yes (1)
COCC(C)OCC(C)O (stereo not drawn)	no (0)
O=c1c(-c2ccc(O)cc2)coc2cc(O)ccc12	yes (1)
C=C(C)C(=O)OCCC(F)(F)C(F)(F)C(F)(F)C(F)(F)C(F)(F)C(F)(F)F	no (0)
O=C(O)Cc1cc(I)c(Oc2cc(I)c(O)c(I)c2)c(I)c1	yes (1)
CCCCCCCCCCCCCC[N+](C)(C)C	yes (1)
NC(=O)N1C(=O)C(C(=O)c2cc(Cl)cs2)c2cc(F)c(Cl)cc21 (stereo not drawn)	yes (1)
ClC1=C(Cl)C(Cl)(Cl)C(Cl)=C1Cl	yes (1)
O=C(OCCOCCOC(=O)c1ccccc1)c1ccccc1	no (0)

----------
Read-out: catalase (CAT), CAT (gene 847)
PROCEDURE_SUMMARY: LTEA_HepaRG_CAT: Life Technologies and Expression Analysis (LTEA) Assay for catalase (CAT) using HepaRG (AID 2283452)
CONDITIONS_USED: mRNA level, 48 h; actives raise or lower the signal
The source made the active and inactive calls. How the source made its calls: active means hit-call score of the fitted dose curve at least 0.9, where 1 is the maximum; inactive means score below 0.9.
Outcomes: active, inactive

MOLECULE	CAT
CCN(CC)CCNc1ccc(CNC=O)c2sc3ccc(OC)cc3c(=O)c12	active
C[C@@H]1C[C@H]2[C@@H]3CCC4=CC(=O)C=C[C@]4(C)[C@@]3(F)[C@@H](O)C[C@]2(C)[C@@]1(O)C(=O)COP(=O)(O)O	inactive
OC1CCC(C2CCCCC2)CC1 (stereo not given)	inactive
CCCCCCCCOC(=O)CCCCCCCCC(=O)OCCCCCCCC	inactive
COC(=O)CCCCC(=O)OC	inactive
